Recorded viability, T/C by entry
System: 947758-054-R-J2-PDC spheroid growth, percent test/control
ASSAY DETAILS: Anticancer human tumor 947758-054-R-J2-PDC patient-derived colon adenocarcinoma cell line growth inhibition [CLK]
MEASUREMENT SETUP: second compound 10 µM; first compound 1 µM; active compounds read low; spheroids with HUVEC and MSC
Dear colleague, please return just the value in %, with no unit written.

These recorded examples may help you get a feel for the data.
1. CCc1c2c(nc3ccc(O)cc13)-c1cc3c(c(=O)n1C2)COC(=O)[C@]3(O)CC + CNC(=O)c1ccc(Nc2nc(OC3CCCC3)c3c(-c4ccc5nc(C)oc5c4)c[nH]c3n2)c(OC)c1    0.68
2. CC1COCCN1c1cc(C2(S(C)(=N)=O)CC2)nc(-c2ccnc3[nH]ccc23)n1 (centres undefined) + CNC(=O)c1ccc(Nc2nc(OC3CCCC3)c3c(-c4ccc5nc(C)oc5c4)c[nH]c3n2)c(OC)c1    26.7
3. CC(=O)O[C@H]1C(=O)[C@@]2(C)[C@H]([C@H](OC(=O)c3ccccc3)[C@]3(O)C[C@H](OC(=O)[C@H](O)[C@@H](NC(=O)c4ccccc4)c4ccccc4)C(C)=C1C3(C)C)[C@]1(OC(C)=O)CO[C@@H]1C[C@@H]2O + CNC(=O)c1ccc(Nc2nc(OC3CCCC3)c3c(-c4ccc5nc(C)oc5c4)c[nH]c3n2)c(OC)c1    53.9
4. COc1cccc2c1C(=O)c1c(O)c3c(c(O)c1C2=O)CC(O)(C(=O)CO)CC3OC1CC(N)C(O)C(C)O1 (centres undefined) + CN1CCN(c2cc(C(=O)Nc3cc4cc(-c5cnn(C)c5)ccc4cn3)ccn2)CC1    0.22
5. Nc1ccccc1NC(=O)c1ccc(CNC(=O)OCc2cccnc2)cc1 + CN1CCN(c2cc(C(=O)Nc3cc4cc(-c5cnn(C)c5)ccc4cn3)ccn2)CC1    0.43
6. C#Cc1c(F)ccc2cc(O)cc(-c3ncc4c(N5CC6CCC(C5)N6)nc(OCC56CCCN5CC(F)C6)nc4c3F)c12 (centres undefined) + CNC(=O)c1ccc(Nc2nc(OC3CCCC3)c3c(-c4ccc5nc(C)oc5c4)c[nH]c3n2)c(OC)c1    32.2

Enquiry: Please state recorded viability, T/C (tested on 947758-054-R-J2-PDC spheroid growth, percent test/control) of CC1(C)CCC(CN2CCN(c3ccc(C(=O)NS(=O)(=O)c4ccc(NCC5CCOCC5)c([N+](=O)[O-])c4)c(Oc4cnc5[nH]ccc5c4)c3)CC2)=C(c2ccc(Cl)cc2)C1 + CN1CCN(c2cc(C(=O)Nc3cc4cc(-c5cnn(C)c5)ccc4cn3)ccn2)CC1
Return: 0.43

Enquiry: How about COc1ccc([C@@H](O)c2cc(-c3ncnc4cc(N5CCOCC5)ccc34)c(F)cc2Cl)nn1 + CNC(=O)c1ccc(Nc2nc(OC3CCCC3)c3c(-c4ccc5nc(C)oc5c4)c[nH]c3n2)c(OC)c1 ?
Return: 21.5

Enquiry: How about COc1ccc([C@@H](O)c2cc(-c3ncnc4cc(N5CCOCC5)ccc34)c(F)cc2Cl)nn1 + CN1CCN(c2cc(C(=O)Nc3cc4cc(-c5cnn(C)c5)ccc4cn3)ccn2)CC1 ?
Return: 0.21

---

System: 947758-054-R-J2-PDC spheroid growth, percent test/control
ASSAY DETAILS: Anticancer human tumor 947758-054-R-J2-PDC cell line growth inhibition [CLK]; active means viability on the fitted dose curve at most 10% of control; inactive means the rest;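 further: spheroids exposed to compounds for one week before readout; 100% = DMSO vehicle control wells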
MEASUREMENT SETUP: second compound 0.316 µM; first compound 0.03 µM; spheroids with HUVEC and MSC
Description: A high-throughput screen of multi-cell type tumor spheroids was designed to identify active combinations of […] and targeted small molecules. Complex spheroids include a stromal component modeled by human endothelial cells (HUVEC) and fibroblasts modeled by human mesenchymal stem cells (MSCs). […] Compounds. […] If the clinical Cmax for an agent had not been determined, the highest concentration tested was 10 microM. […]
Could you please pick one outcome from this set? label 1 = active, label 0 = inactive

Illustrative cases are given below, each with its answer.
1) C=CC(=O)Nc1cc(Nc2nccc(-c3cn(C)c4ccccc34)n2)c(OC)cc1N(C)CCN(C)C + CNC(=O)c1ccc(Nc2nc(OC3CCCC3)c3c(-c4ccc5nc(C)oc5c4)c[nH]c3n2)c(OC)c1    label 0
2) NC(=O)C(=Cn1cnc(-c2cc(C(F)(F)F)cc(C(F)(F)F)c2)n1)c1cncnc1 + CN1CCN(c2cc(C(=O)Nc3cc4cc(-c5cnn(C)c5)ccc4cn3)ccn2)CC1    label 1

Now consider the entry below.
Enquiry: Which outcome was entered for the compound C=CC(=O)Nc1cc(Nc2nccc(-c3cn(C)c4ccccc34)n2)c(OC)cc1N(C)CCN(C)C + CN1CCN(c2cc(C(=O)Nc3cc4cc(-c5cnn(C)c5)ccc4cn3)ccn2)CC1 in this test?
Return: label 1
